SYSTEM TESTED: recombinant CYP4F2 (rCYP4F2) (Homo sapiens (Human))
Sequence (P78329 5-520): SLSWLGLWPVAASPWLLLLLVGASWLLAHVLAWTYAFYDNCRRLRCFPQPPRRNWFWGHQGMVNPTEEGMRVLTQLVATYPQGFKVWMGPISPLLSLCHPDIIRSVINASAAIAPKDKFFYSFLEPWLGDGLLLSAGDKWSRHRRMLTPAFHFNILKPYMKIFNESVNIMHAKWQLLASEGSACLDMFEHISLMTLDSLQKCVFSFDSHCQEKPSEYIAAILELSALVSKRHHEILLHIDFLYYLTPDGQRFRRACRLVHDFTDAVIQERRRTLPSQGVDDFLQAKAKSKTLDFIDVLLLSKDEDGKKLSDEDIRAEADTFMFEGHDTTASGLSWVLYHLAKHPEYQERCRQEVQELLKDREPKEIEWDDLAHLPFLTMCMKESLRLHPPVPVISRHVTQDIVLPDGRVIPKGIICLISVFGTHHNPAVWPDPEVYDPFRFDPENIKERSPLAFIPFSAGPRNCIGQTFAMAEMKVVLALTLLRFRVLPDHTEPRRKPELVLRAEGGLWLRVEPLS
TEST PROTOCOL: Inhibition of 20-HETE production by recombinant CYP4F2
Type: biochemical
TEST CONTEXT: read-out: rCYP4F2 (% inh @ 100 nM)

{"columns": ["COMPOUND", "inhibition at 0.1 µM / %"],
 "data": [
  ["O=C(NCC1CCN(c2ccc(-c3cn[nH]c3)cc2)CC1)c1ccccc1 [Compound 47]", 66],
  ["O=C(C1CCN(c2ccc(-c3cn[nH]c3)cc2)CC1)N1CCCC1 [Compound 49]", 42.4],
  ["O=C1CCCN1CC1CCN(c2ccc(-c3cn[nH]c3)c(F)c2)CC1 [Compound 3]", 64.2],
  ["O=C1CCCCN1CC1CCN(c2ccc(-c3cn[nH]c3)cc2)CC1 [Compound 25]", 56],
  ["O=C(C1CCCC1)N1CCC(c2ccc(-c3cn[nH]c3)cc2)CC1 [Compound 70]", 79.2],
  ["O=C1CCCN1CC1CCN(c2ccc(-c3cn[nH]c3)cc2)CC1 [Compound 1]", 59.5],
  ["O=C1CCCCN1CC1CCN(c2ccc(-c3cn[nH]c3)c(F)c2F)CC1 [Compound 26]", 78],
  ["O=C(Nc1ccc2ccccc2c1)C1CCN(c2ccc(-c3cn[nH]c3)cc2)CC1 [Compound 64]", 73.8],
  ["O=C1CCCN1CC1CCN(c2ccc(-c3ccno3)cc2)CC1 [Compound 34]", 49.7],
  ["O=C1CCCN1CC1CCN(c2ccc(-c3cn[nH]c3)c(F)c2F)CC1 [Compound 4]", 61.7],
  ["O=C(C1CCN(c2ccc(-c3cn[nH]c3)cc2)CC1)N1Cc2ccccc2C1 [Compound 66]", 70.5],
  ["O=C1CCCN1CC1CCN(c2ccc(-c3cn[nH]c3)cc2)C1 (centres unmarked) [Compound 74]", 52.8],
  ["O=C(N1CCCC1)N1CCN(c2ccc(-c3cn[nH]c3)c(F)c2F)CC1 [Compound 72]", 70.1],
  ["O=C(NC1CCCCC1)C1CCN(c2ccc(-c3cn[nH]c3)cc2)CC1 [Compound 57]", 61.7],
  ["O=C1CCCN1CC1CCN(c2ccc(-c3cn[nH]c3)cc2C(F)F)CC1 [Compound 19]", 61.4],
  ["O=C1CCCN1Cc1ccc(C2CCN(c3cn[nH]c3)CC2)cc1 [Reference 83, reference compound]", 54.6],
  ["O=C1CCCCN1CC1CCN(c2c(F)cc(-c3cn[nH]c3)cc2F)CC1 [Compound 27]", 78.4],
  ["O=C1CCCN1CC1CCN(c2ccc(-c3cn[nH]c3)cc2Cl)CC1 [Compound 11]", 59.7],
  ["O=C1CCCN1CC1CCN(c2c(F)cc(-c3cn[nH]c3)cc2F)CC1 [Compound 5]", 71.1],
  ["O=C(Nc1ccc2occc2c1)C1CCN(c2ccc(-c3cn[nH]c3)cc2)CC1 [Compound 62]", 79.2]
]}

----------
Test system: CYP enzymes in rat liver microsomes (RLM)
TEST PROTOCOL: Inhibition of 20-HETE production in rat liver microsomes (RLM)
Format: biochemical
TEST CONTEXT: 500 nM
Procedure: Experimental principle: The inhibitory activity of 20-HETE production is evaluated by testing the inhibitory effects of the compound on human liver microsomes (HLM), rat liver microsomes (RLM), mouse liver microsomes (MLM), or […] CYP4 subtype enzymes (CYP4F2). […]
Please enter satisfied where RLM (% inh @ 500 nM) is greater than or equal to 60%, and not satisfied where it is lower.

{"columns": ["MOLECULE", "CLASS"],
 "data": [
  ["O=C(CCCCCc1ccccc1)NCC1CCN(c2ccc(-c3cn[nH]c3)cc2)CC1 [Compound 113]", "not satisfied"],
  ["O=C(N1CCCCC1)N1CCN(c2ccc(-c3cn[nH]c3)c(F)c2F)CC1 [Compound 88]", "satisfied"],
  ["O=C(N1CCCC1)N1CC2CCC(C1)N2c1ccc(-c2cn[nH]c2)c(F)c1F [Compound 128]", "satisfied"],
  ["O=C1CCCN1CC1CCN(c2ccc(-c3ccno3)cc2)CC1 [Compound 34]", "satisfied"],
  ["O=C(C1CCN(c2ccc(-c3cn[nH]c3)cc2)CC1)N1CCOCC1 [Compound 50]", "not satisfied"],
  ["O=C(C1CCC(F)(F)CC1)N1CCC(c2ccc(-c3cn[nH]c3)c(F)c2F)CC1 [Compound 101]", "satisfied"],
  ["O=C(C1CCN(c2ccc(-c3cn[nH]c3)cc2)CC1)N1Cc2ccccc2C1 [Compound 66]", "satisfied"],
  ["Clc1ccc(CC2CCN(c3ccc(-c4cn[nH]c4)cc3)CC2)cc1 [Compound 41]", "not satisfied"],
  ["O=C1CCCN1CC1CCN(c2ccc(-c3cn[nH]c3)cc2)C1 (stereo not drawn) [Compound 74]", "not satisfied"],
  ["COC(=O)c1cc(-c2cn[nH]c2)ccc1N1CCC(CN2CCCC2=O)CC1 [Compound 18]", "not satisfied"],
  ["O=C(N1CCC(c2ccc(-c3cn[nH]c3)c(F)c2F)CC1)C1(O)CCCCC1 [Compound 110]", "satisfied"],
  ["O=C1CCCN1CC1CCN(c2c(F)cc(-c3cn[nH]c3)cc2F)CC1 [Compound 5]", "satisfied"],
  ["O=C1CCCN1CC1CCN(c2ccc(-c3cn[nH]c3)c(F)c2F)CC1 [Compound 4]", "satisfied"],
  ["C[C@@H]1CN(C(=O)N2CCCC2)CCN1c1ccc(-c2cn[nH]c2)c(F)c1F [Compound 104]", "satisfied"],
  ["CCCCCC1CCC(C(=O)N2CCC(c3ccc(-c4cn[nH]c4)c(F)c3F)CC2)CC1 (stereo not drawn) [Compound 112]", "satisfied"],
  ["O=C(Nc1ccc2occc2c1)C1CCN(c2ccc(-c3cn[nH]c3)cc2)CC1 [Compound 62]", "not satisfied"],
  ["O=C1c2ccccc2CCN1CC1CCN(c2ccc(-c3cn[nH]c3)cc2)CC1 [Compound 42]", "not satisfied"],
  ["O=C(NC1CCCC1)N1CCN(c2ccc(-c3cn[nH]c3)c(F)c2F)CC1 [Compound 89]", "not satisfied"],
  ["O=C1C2CCC(C2)N1CC1CCN(c2ccc(-c3cn[nH]c3)cc2)CC1 (stereo not drawn) [Compound 33]", "not satisfied"],
  ["C[C@H]1CN(C(=O)N2CCCC2)CCN1c1ccc(-c2cn[nH]c2)c(F)c1F [Compound 102]", "satisfied"],
  ["O=S(=O)(C1CCCCC1)N1CCC(c2ccc(-c3cn[nH]c3)cc2F)CC1 [Compound 119]", "satisfied"],
  ["O=C1CCC(=O)N1CC1CCN(c2ccc(-c3cn[nH]c3)cc2)CC1 [Compound 28]", "not satisfied"],
  ["O=C(C1CCN(c2ccc(-c3cn[nH]c3)cc2)CC1)N1CCCC1 [Compound 49]", "not satisfied"],
  ["N#Cc1cc(-c2cn[nH]c2)ccc1N1CCC(CN2CCCC2=O)CC1 [Compound 13]", "not satisfied"],
  ["c1cc(N2CCC(CN3CCCC3)CC2)ccc1-c1cn[nH]c1 [Compound 40]", "not satisfied"],
  ["O=C(C1CCN(c2ccc(-c3cn[nH]c3)cc2)CC1)N1CC2(CCC2)C1 [Compound 67]", "not satisfied"],
  ["O=C1CCCN1CCC1CCN(c2ccc(-c3cn[nH]c3)cc2)CC1 [Compound 48]", "not satisfied"],
  ["O=C(NCC1CCN(c2ccc(-c3cn[nH]c3)cc2)CC1)C1CCCC1 [Compound 46]", "not satisfied"],
  ["O=S1(=O)CCCCN1CC1CCN(c2ccc(-c3cn[nH]c3)cc2F)CC1 [Compound 163]", "satisfied"],
  ["O=C(CC1CCCC1)N1CCC(c2ccc(-c3cn[nH]c3)c(F)c2F)CC1 [Compound 93]", "satisfied"],
  ["Cc1cc(-c2cn[nH]c2)ccc1N1CCC(CN2CCCC2=O)CC1 [Compound 12]", "not satisfied"],
  ["O=C(NCc1ccccc1)N1CCN(c2ccc(-c3cn[nH]c3)c(F)c2F)CC1 [Compound 94]", "satisfied"],
  ["O=C1CCCN1Cc1ccc(C2CCN(c3cn[nH]c3)CC2)cc1 [Reference 83, reference compound]", "not satisfied"]
]}

----------
Parameter HLM (% inh @ 500 nM): see the listing below.
Test system: CYP enzymes in human liver microsomes (HLM)
TEST PROTOCOL: Inhibition of 20-HETE production in human liver microsomes (HLM)
Type: biochemical
TEST CONTEXT: 500 nM

{"columns": ["COMPOUND", "HLM (% inh @ 500 nM) / %"],
 "data": [
  ["O=C1CCCN1CC1CCN(c2ncc(-c3cn[nH]c3)cn2)CC1", "−24.84"],
  ["O=C1C2CCC(C2)N1CC1CCN(c2ccc(-c3cn[nH]c3)cc2)CC1 (stereo not drawn)", 61.47],
  ["O=C1CCCCN1CC1CCN(c2ccc(-c3cn[nH]c3)cc2)CC1", 80.65],
  ["O=C(C1CCN(c2ccc(-c3cn[nH]c3)cc2)CC1)N1CCCCC1", 81.26],
  ["O=C1CCCN1CC1CCN(c2ccc(-c3cn[nH]c3)cc2Cl)CC1", 80.98],
  ["O=C1CCCN1CC1CCN(c2cc(F)c(-c3cn[nH]c3)cc2F)CC1", 67.30],
  ["C[C@@H]1CN(c2ccc(-c3cn[nH]c3)c(F)c2F)CCN1C(=O)N1CCCC1", 80.55],
  ["O=C(NC1CCN(c2ccc(-c3cn[nH]c3)cc2)CC1)C1CCCC1", 76.97],
  ["O=S(=O)(c1ccc(F)cc1)N1CCC(c2ccc(-c3cn[nH]c3)cc2F)CC1", 93.40],
  ["O=C1CCCN1CC1CCN(c2ccc(-c3cn[nH]c3)cn2)CC1", 40.01],
  ["O=C(C1CCN(c2ccc(-c3cn[nH]c3)cc2)CC1)N1CC2(CCC2)C1", 55.57],
  ["O=C1CCCN1CC1CCN(c2ccc(-c3cn[nH]c3)cc2)C1 (stereo not drawn)", 72.44],
  ["O=S1(=O)CCCCN1CC1CCN(c2ccc(-c3cn[nH]c3)cc2F)CC1", 90.91],
  ["O=C(N1CC=C(c2ccc(-c3cn[nH]c3)c(F)c2F)CC1)N1CCCC1", 96.45],
  ["O=C(N1CCCC1)N1CCN(c2ccc(-c3cn[nH]c3)c(F)c2F)CC1", 89.73],
  ["O=C1CCCN1CC1CCN(c2ccc(-c3cn[nH]c3)cc2CO)CC1", 65.27],
  ["c1cc(N2CCC(CN3CCCC3)CC2)ccc1-c1cn[nH]c1", 52.40],
  ["O=C1CCCN1CC1CCN(c2ccc(-c3cn[nH]c3)cc2C(F)F)CC1", 87.01]
]}
